molecular target: Src tyrosine kinase; experiment: cell-based or functional assay
Where no end group is shown, it is not given here. [ ]: non-standard residue; d: D form. Phe(4-Cl) = N[C@@H](Cc1ccc(Cl)cc1)C(=O)O; Phe(4-F) = N[C@@H](Cc1ccc(F)cc1)C(=O)O; Phe(4-I) = N[C@@H](Cc1ccc(I)cc1)C(=O)O; Phe(NH2) = aminophenylalanine; Phe(NO2) = nitrophenylalanine
measured attribute: IC50, inhibitory potency (Src kinase assay, polyE4Y phosphorylation) (µM)

I. Ac-CIYK[Phe(4-Cl)]Y [Ac-CIYKF(4-C1)Y (75)]
II. Ac-CIYK[Phe(NO2)]Y [Ac-CIYKF(NO2)Y (62)]
III. Ac-CIYK[Phe(NH2)]Y [Ac-CIYKF(NH2)Y (63)]
IV. Ac-CIYK[Phe(4-F)]Y [Ac-CIYKF(4-F)Y (74)]
V. Ac-CIYK[Phe(4-I)]Y [Ac-CIYKF(4-I)Y (76)]
Exam item: // rank above by IC50, inhibitory potency (Src kinase assay, polyE4Y phosphorylation): first = highest number List each label, following the requested order.
Marked response: III, IV, I, V, II
(III: 93 µM, IV: 26 µM, I: 7.3 µM, V: 0.78 µM, II: 0.53 µM)
